Assay: Inhibition of wild type human plasma alpha-thrombin assessed as spectrozyme TH hydrolysis after 10 mins in absence of exosite 1 ligand HirP
pIC50: −log10 of the molar value.

>  <Structure smiles string>
CCOC(=O)c1c(C)oc2cc(OC(C)C)c(OCc3oc4cc(OC(C)C)c(OS(=O)(=O)O)cc4c3C(=O)OCC)cc12

>  <Result comparator>
=

>  <pIC50>
5.89

$$$$
>  <Structure smiles string>
CCOC(=O)c1c(C)oc2cc(OCC)c(OCc3oc4cc(OCC)c(OS(=O)(=O)O)cc4c3C(=O)OCC)cc12

>  <Result comparator>
=

>  <pIC50>
5.35

$$$$
>  <Structure smiles string>
COC(=O)c1c(C)oc2cc(OC)c(OCc3oc4cc(OC)c(OS(=O)(=O)O)cc4c3C(=O)OC)cc12

>  <Result comparator>
=

>  <pIC50>
4.50

$$$$
>  <Structure smiles string>
COCCOC(=O)c1c(C)oc2cc(OC)c(OCc3oc4cc(OC)c(OS(=O)(=O)O)cc4c3C(=O)OCCOC)cc12

>  <Result comparator>
=

>  <pIC50>
4.77

$$$$
>  <Structure smiles string>
CCOC(=O)c1c(C)oc2cc(OC)c(OCc3oc4cc(OC)c(OS(=O)(=O)[O-])cc4c3C(=O)OCC)cc12.[Na+]

>  <Result comparator>
=

>  <pIC50>
5.21

$$$$
>  <Structure smiles string>
COc1cc2oc(C)c(C(=O)O)c2cc1OCc1oc2cc(OC)c(OS(=O)(=O)O)cc2c1C(=O)O

>  <Result comparator>
<

>  <pIC50>
3.30

$$$$
